target: Neu5Ac(a2-3)Gal(b1-3)[Fuc(a1-4)]GlcNAc(b1-3)Gal(b1-3)[Fuc(a1-4)]GlcNAc; assay: glycan array binding signal (z-score within array); higher = stronger binding; conditions: glycan notation: IUPAC condensed, linker removed
The sample as a whole holds a higher share of the strongest signals than the screen did.
assay.endpoint: glycan array binding signal (z-score)
Reply briefly: the number, and no unit.

Asked: What value of glycan array binding signal (z-score) has been recorded for this entry: PP2A1 (Arabidopsis thaliana) (protein) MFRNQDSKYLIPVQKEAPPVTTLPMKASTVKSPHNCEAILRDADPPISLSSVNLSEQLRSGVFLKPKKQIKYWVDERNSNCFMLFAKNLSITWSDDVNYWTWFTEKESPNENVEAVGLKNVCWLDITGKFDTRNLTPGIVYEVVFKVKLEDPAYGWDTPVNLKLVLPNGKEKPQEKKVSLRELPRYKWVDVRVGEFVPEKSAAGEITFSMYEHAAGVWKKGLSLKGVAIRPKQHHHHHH
Given back: 0.594

Asked: What value of glycan array binding signal (z-score) has been recorded for this entry: LICBM33A (Lactococcus lactis), Q9CE94 (protein) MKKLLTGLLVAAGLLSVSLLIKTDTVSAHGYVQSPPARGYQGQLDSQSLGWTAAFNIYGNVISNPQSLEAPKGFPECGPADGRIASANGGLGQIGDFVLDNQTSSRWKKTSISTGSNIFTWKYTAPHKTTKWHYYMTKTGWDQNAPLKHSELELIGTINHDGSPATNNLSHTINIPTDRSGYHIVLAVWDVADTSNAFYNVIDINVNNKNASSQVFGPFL
Given back: 3.37

Asked: What value of glycan array binding signal (z-score) has been recorded for this entry: Gal 12 (Homo sapiens), Q96DT0 (protein) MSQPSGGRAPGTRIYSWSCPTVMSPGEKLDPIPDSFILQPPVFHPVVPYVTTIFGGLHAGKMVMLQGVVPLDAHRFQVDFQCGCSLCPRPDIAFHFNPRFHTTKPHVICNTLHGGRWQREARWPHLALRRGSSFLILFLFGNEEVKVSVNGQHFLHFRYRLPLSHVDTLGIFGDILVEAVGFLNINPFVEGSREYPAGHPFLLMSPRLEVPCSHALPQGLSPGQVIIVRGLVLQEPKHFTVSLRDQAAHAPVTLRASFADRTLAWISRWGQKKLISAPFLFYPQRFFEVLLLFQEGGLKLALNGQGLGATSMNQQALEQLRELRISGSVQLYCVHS
Given back: -0.082
